- Test system: wheat germ agglutinin (Triticum aestivum), Alexa647-labelled
- PROTOCOL_DETAILS: wheat germ agglutinin binders on compound microarrays, profiling panel, artefact control for SMM control-protein annotation, biochemical, small-molecule microarray, 635/667 nm fluorescence (AID 1140);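 note: score merges 667 nm feature emission with signal to noise over triplicate slides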
- TEST_CONTEXT: WGA-A647 binding, 635 nm fluorescence, higher = more signal
ENDPOINT_NAME: composite z-score
Please give only the number in your answer, with no unit.

Exam item: Consider the compound Oc1ccc2cc[n+](Cc3sc4ccccc4c3Cl)cc2c1 and give its recorded composite z-score.
Marked response: 1.14

Exam item: Consider the compound CC(=O)NCCCC[C@@H]1NC(=O)[C@@H]2C[C@H](C(=O)NCCCCCNC(=O)CS)[C@H](c3cccc(OCCO)c3)N2C1=O and give its recorded composite z-score.
Marked response: 0.0847

Exam item: Consider the compound COc1ccc([Si](C)(C)[C@H]2[C@H](CC(=O)N3Cc4ccccc4C[C@H]3CO)O[C@@]3(C(=O)N(Cc4cccc(N5CCC5=O)c4)c4ccccc43)[C@@H]2C)cc1 and give its recorded composite z-score.
Marked response: 0.107

Exam item: Consider the compound CCCCCN1CC=CC23O[C@@H]4C=CCCOC(=O)C4[C@H]2C(=O)N(CCCCCO)[C@@H]3C1=O (stereo not given in full) and give its recorded composite z-score.
Marked response: 0.796

Exam item: Consider the compound COCCOC(=O)N1C(=O)[C@@]2(c3ccccc31)[C@H](c1ccccc1OCCO)N1[C@H](c3ccccc3)[C@H](c3ccccc3)OC(=O)[C@H]1[C@@H]2C(=O)N1CCN(c2ncccn2)CC1 and give its recorded composite z-score.
Marked response: 1.1

Exam item: Consider the compound O=C1C2C=CC(C(O)c3cccc4ccccc34)N(Nc3ccccc3F)C2C(=O)N1c1ccccc1 (stereo not given) and give its recorded composite z-score.
Marked response: 1.4

Exam item: Consider the compound COCCOC(=O)N1C(=O)[C@@]2(c3ccccc31)[C@H](C(=O)N1CCc3cc(OC)c(OC)cc3C1)[C@H]1C(=O)O[C@H](c3ccccc3)[C@H](c3ccccc3)N1[C@@H]2c1ccc(OCCO)cc1 and give its recorded composite z-score.
Marked response: 0.722

Exam item: Consider the compound COCCCNC(=O)[C@]1(CCC(=O)OC(C)(C)C)N=C(c2ccc(OCCCO)cc2)O[C@@H]1c1ccccc1CN=[N+]=[N-] and give its recorded composite z-score.
Marked response: 1.13

Exam item: Consider the compound COCCCNC(=O)[C@@H]1c2ccccc2C(=O)N(Cc2ccccc2Cl)[C@H]1c1ccc(CO)cc1 and give its recorded composite z-score.
Marked response: -0.0431

Exam item: Consider the compound CCOC(=O)C1=C[C@@H](C(C)(C)C)N(S(=O)(=O)c2ccc(C)cc2)[C@H]1c1ccc(F)cc1 and give its recorded composite z-score.
Marked response: 0.723

Exam item: Consider the compound OCCCC1=CC(c2cccs2)N(Cc2cc3c(cc2Br)OCO3)CC1 (stereo not given) and give its recorded composite z-score.
Marked response: 0.929

Exam item: Consider the compound CCCCN1CC=CC23O[C@@H]4C=CCCOC(=O)C4[C@H]2C(=O)N(CCCCCCO)[C@@H]3C1=O (stereo not given in full) and give its recorded composite z-score.
Marked response: 0.379

Exam item: Consider the compound COC(=O)[C@@]1(CCC(=O)OC(C)(C)C)N=C(c2ccc(OCCCO)cc2)O[C@H]1c1ccccc1N=[N+]=[N-] and give its recorded composite z-score.
Marked response: 0.658

Exam item: Consider the compound [N-]=[N+]=NCc1ccccc1[C@@H]1OC(c2ccc(OCCCO)cc2)=N[C@]1(Cc1ccccc1)C(=O)NCC(O)CO (stereo not given in full) and give its recorded composite z-score.
Marked response: 0.718

Exam item: Consider the compound O=C1C[C@@](C(=O)NCCN2CCOCC2)(c2ccc([N+](=O)[O-])cc2)[C@@H](c2ccc(CO)cc2I)N1CC12CC3CC(CC(C3)C1)C2 and give its recorded composite z-score.
Marked response: 0.981
